Data credit: patent US20240109912A1

Below are IC50 values measured for RNA polymerase II Serine 5 phosphorylation (CDK7) in A549 cells.
observation.type: IC50 (nM)

C=CC(=O)N1CC(N2CCC(c3cc(Cl)c4c(c3)Nc3ncnc(N5CCOCC5)c3CO4)CC2)C1 : 372
C=CC(=O)N1CC(N2CCC(c3cc(F)c4c(c3)Nc3ncnc(-c5cnn(C)c5)c3CO4)CC2)C1 : 832
C=CC(=O)N1CC(N2CCC(c3cc4c(c(C)n3)O[C@@H](C)c3c(ncnc3N3CCS(=O)(=O)CC3)N4)CC2)C1 (single isomer, unassigned) : 525

I. C=CC(=O)N1CCC(N2CC(c3cc4c(c(C(F)(F)F)c3)OCc3c(ncnc3-c3cnn(C)c3)N4)C2)CC1
II. C=CC(=O)N1CC[C@@H](N2CC(c3cc(C)c4c(c3)Nc3ncnc(N5CCOCC5)c3CO4)C2)C1
IN: Given the listed items, does I or II have the lesser reported IC50? Field: selected label. Fill in the label of the entry you choose.
OUT: II
